tested on: Escherichia coli TOP10; experiment: shrunken log2 fold change of peptide-encoding DNA abundance (4.5 h post-induction vs induction); higher = less antimicrobial activity (less host growth inhibition); details: time post-induction: 4.5 h; library: site-saturation at positions 5, 18, 19, 20;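 further: peptides expressed intracellularly from a pBAD plasmid library in pooled LB shake-flask culture, induced with 0.3% L-arabinose, DNA abundance read by NGS, three biological replicates, DESeq2 with apeglm shrinkage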
Please note: 1 applies when shrunken log2 fold change is -0.07 or greater, and 0 applies otherwise.

Example results:
# Sequence Code, Class Name
measured = [
    ("RRIRKRPPRLPRPRPRPSEMPRP", 0),
    ("RRIRWRPPRLPRPRPRPDGQPRP", 1),
    ("RRIRCRPPRLPRPRPRPDDYPRP", 1),
    ("RRIRMRPPRLPRPRPRPPPAPRP", 1),
    ("RRIRSRPPRLPRPRPRPQLFPRP", 1),
]

Does the reported shrunken log2 fold change for RRIRSRPPRLPRPRPRPWVTPRP fall at or above the -0.07 mark?
0

Identify whether the reported shrunken log2 fold change of the following sequence is -0.07 or greater: RRIRSRPPRLPRPRPRPYLPPRP
0

Confirm if shrunken log2 fold change reported for the sequence RRIRLRPPRLPRPRPRPMKPPRP is -0.07 or above.
1

Is shrunken log2 fold change at least -0.07? Consider RRIRVRPPRLPRPRPRPNWMPRP
0

Identify whether the reported shrunken log2 fold change of the following sequence is -0.07 or greater: RRIRTRPPRLPRPRPRPAYLPRP
0

In plain terms: is recorded shrunken log2 fold change at least -0.07 for RRIRYRPPRLPRPRPRPIARPRP ?
1

Check this sequence for shrunken log2 fold change at or above -0.07: RRIRDRPPRLPRPRPRPSHQPRP
0

Does shrunken log2 fold change meet or surpass -0.07 for RRIRQRPPRLPRPRPRPTVPPRP ?
1

Hello, I need to know if RRIRMRPPRLPRPRPRPKPWPRP has measured shrunken log2 fold change not below -0.07. Thanks!
1
